Biological target: HiBit-BRG1 (Homo sapiens, UniProt P51532)
Construct: expressed in transfected cells
Sequence (P51532 whole entry): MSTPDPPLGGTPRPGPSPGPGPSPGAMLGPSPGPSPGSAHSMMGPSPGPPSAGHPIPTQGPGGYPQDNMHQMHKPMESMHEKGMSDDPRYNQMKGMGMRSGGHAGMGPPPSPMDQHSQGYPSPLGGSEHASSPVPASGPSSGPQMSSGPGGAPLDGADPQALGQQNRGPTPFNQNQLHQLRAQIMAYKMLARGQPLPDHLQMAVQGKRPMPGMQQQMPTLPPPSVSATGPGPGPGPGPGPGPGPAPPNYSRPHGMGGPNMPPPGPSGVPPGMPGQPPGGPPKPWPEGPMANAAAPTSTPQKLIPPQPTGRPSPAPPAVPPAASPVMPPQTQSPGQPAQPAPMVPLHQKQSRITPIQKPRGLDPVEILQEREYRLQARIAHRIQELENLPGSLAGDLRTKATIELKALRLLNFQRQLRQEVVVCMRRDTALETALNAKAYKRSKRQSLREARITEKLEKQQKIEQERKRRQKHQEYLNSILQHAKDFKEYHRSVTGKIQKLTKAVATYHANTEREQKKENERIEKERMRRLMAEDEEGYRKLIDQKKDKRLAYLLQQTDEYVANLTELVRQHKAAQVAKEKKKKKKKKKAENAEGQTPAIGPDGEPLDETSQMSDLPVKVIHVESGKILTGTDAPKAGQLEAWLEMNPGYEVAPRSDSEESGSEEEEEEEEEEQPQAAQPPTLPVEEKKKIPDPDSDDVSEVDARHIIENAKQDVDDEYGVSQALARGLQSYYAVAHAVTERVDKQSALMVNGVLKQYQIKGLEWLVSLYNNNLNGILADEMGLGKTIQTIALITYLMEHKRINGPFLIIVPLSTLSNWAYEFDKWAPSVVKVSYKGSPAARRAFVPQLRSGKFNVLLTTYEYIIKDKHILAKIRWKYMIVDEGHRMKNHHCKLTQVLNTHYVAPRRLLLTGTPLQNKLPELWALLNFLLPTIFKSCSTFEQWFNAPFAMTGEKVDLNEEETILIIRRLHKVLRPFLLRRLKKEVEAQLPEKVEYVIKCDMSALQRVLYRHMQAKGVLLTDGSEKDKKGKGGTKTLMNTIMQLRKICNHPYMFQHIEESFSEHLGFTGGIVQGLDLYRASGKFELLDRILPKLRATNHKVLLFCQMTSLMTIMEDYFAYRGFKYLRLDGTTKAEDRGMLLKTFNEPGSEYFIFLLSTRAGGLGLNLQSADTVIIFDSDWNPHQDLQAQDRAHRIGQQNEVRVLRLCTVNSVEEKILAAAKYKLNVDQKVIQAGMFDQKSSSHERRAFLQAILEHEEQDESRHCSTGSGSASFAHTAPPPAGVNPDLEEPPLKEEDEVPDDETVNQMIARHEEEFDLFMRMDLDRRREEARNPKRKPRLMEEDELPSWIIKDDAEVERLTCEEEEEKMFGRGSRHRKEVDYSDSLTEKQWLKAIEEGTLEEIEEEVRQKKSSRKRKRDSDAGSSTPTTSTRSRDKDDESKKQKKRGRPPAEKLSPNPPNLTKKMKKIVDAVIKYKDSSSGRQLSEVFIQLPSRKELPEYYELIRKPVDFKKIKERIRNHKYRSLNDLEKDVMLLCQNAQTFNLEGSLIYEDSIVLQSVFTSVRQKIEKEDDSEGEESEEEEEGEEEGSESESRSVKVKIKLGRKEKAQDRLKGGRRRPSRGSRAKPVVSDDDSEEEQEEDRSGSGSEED
Test: HiBit-BRG1 cell-based degradation assay (Nano-Glo HiBiT Lytic Detection)
Conditions: HeLa cells expressing HiBit-BRG1 and LgBit, 24 h; read-out: BRG1 HiBit Degradation Maximum (%)
Provide the recorded Dmax for the entries that follow.

Solved cases (10 shown):
[
  {
    "compound": "Nc1nnc(-c2ccccc2O)cc1OCCc1ccc(C(=O)NCCOCCOCCNc2cccc3c2CN(C2CCC(=O)NC2=O)C3=O)cc1 (stereo not drawn)",
    "assay_system": "HiBit-BRG1 (Homo sapiens, UniProt P51532)",
    "Dmax": "< 50%"
  },
  {
    "compound": "Cc1ncsc1-c1ccc(CNC(=O)[C@H]2C[C@H](O)CN2C(=O)[C@H](NC(=O)COCCOCCOCCNC(=O)c2ccc(CCOc3cc(-c4ccccc4O)nnc3N)cc2)C(C)(C)C)cc1 (stereo in doubt)",
    "assay_system": "HiBit-BRG1 (Homo sapiens, UniProt P51532)",
    "Dmax": "< 50%"
  },
  {
    "compound": "Nc1nnc(-c2ccccc2O)cc1NCCc1ccc(CNC(=O)CCCCOc2cccc3c2C(=O)N(C2CCC(=O)NC2=O)C3=O)cc1 (stereo not drawn)",
    "assay_system": "HiBit-BRG1 (Homo sapiens, UniProt P51532)",
    "Dmax": "< 50%"
  },
  {
    "compound": "Cc1ncsc1-c1ccc(CNC(=O)[C@@H]2C[C@@H](O)CN2C(=O)[C@@H](NC(=O)CCCCCCCCCCCCC(=O)NCc2ccc(CCOc3cc(-c4ccccc4O)nnc3N)cc2)C(C)(C)C)cc1",
    "assay_system": "HiBit-BRG1 (Homo sapiens, UniProt P51532)",
    "Dmax": "< 50%"
  },
  {
    "compound": "CN(CCc1ccc(CNCCN2CCN(c3cccc4c3C(=O)N(C3CCC(=O)NC3=O)C4=O)CC2)cc1)c1cc(-c2ccccc2O)nnc1N (stereo not drawn) [Compound 160, diformate]",
    "assay_system": "HiBit-BRG1 (Homo sapiens, UniProt P51532)",
    "Dmax": "> 50%"
  },
  {
    "compound": "Nc1nnc(-c2ccccc2O)cc1OCCc1ccc(CNC(=O)CCCCNc2ccc3nnn(C4CCC(=O)NC4=O)c(=O)c3c2)cc1 (stereo not drawn)",
    "assay_system": "HiBit-BRG1 (Homo sapiens, UniProt P51532)",
    "Dmax": "> 50%"
  },
  {
    "compound": "Nc1nnc(-c2ccccc2O)cc1OCCc1ccc(CNC(=O)CCCNc2cccc3nnn(C4CCC(=O)NC4=O)c(=O)c23)cc1 (stereo not drawn)",
    "assay_system": "HiBit-BRG1 (Homo sapiens, UniProt P51532)",
    "Dmax": "< 50%"
  },
  {
    "compound": "Nc1nnc(-c2ccccc2O)cc1OCCc1ccc(C(=O)NCCCCCCCCNc2cccc3c2CN(C2CCC(=O)NC2=O)C3=O)cc1 (stereo not drawn)",
    "assay_system": "HiBit-BRG1 (Homo sapiens, UniProt P51532)",
    "Dmax": "< 50%"
  },
  {
    "compound": "Cc1ncsc1-c1ccc(CNC(=O)[C@@H]2C[C@@H](O)CN2C(=O)[C@@H](NC(=O)CCN2C[C@H]3CN(CCC(=O)NCc4ccc(CCOc5cc(-c6ccccc6O)nnc5N)cc4)C[C@H]3C2)C(C)(C)C)cc1",
    "assay_system": "HiBit-BRG1 (Homo sapiens, UniProt P51532)",
    "Dmax": "< 50%"
  },
  {
    "compound": "Cc1ncsc1-c1ccc(CNC(=O)[C@@H]2C[C@@H](O)CN2C(=O)[C@@H](NC(=O)CCN2CCC(OC3CCN(CCC(=O)NCc4ccc(CCOc5cc(-c6ccccc6O)nnc5N)cc4)CC3)CC2)C(C)(C)C)cc1",
    "assay_system": "HiBit-BRG1 (Homo sapiens, UniProt P51532)",
    "Dmax": "< 50%"
  }
]

Please supply Dmax for each of the following items, keeping them in order.
1. Nc1nnc(-c2ccccc2O)cc1OCCc1ccc(C(=O)NCCCC(=O)NCc2ccc(S(=O)(=O)Nc3cccc4c(Cl)c[nH]c34)cc2)cc1
2. Nc1nnc(-c2ccccc2O)cc1OCCc1ccc(CNCCN2CCN(c3cccc4c3C(=O)N(C3CCC(=O)NC3=O)C4=O)CC2)cc1 (stereo not drawn)
3. Nc1nnc(-c2ccccc2O)cc1OCCc1ccc(C(=O)NCCCCCCCCNc2cccc3c2C(=O)N(C2CCC(=O)NC2=O)C3=O)cc1 (stereo not drawn)
4. Nc1nnc(-c2ccccc2O)cc1N1CCN(CCNC(=O)CCCCCCCCNc2cccc3c2C(=O)N(C2CCC(=O)NC2=O)C3=O)CC1 (stereo not drawn)
5. Nc1nnc(-c2ccccc2O)cc1OCCc1ccc(CNCCCCNc2cccc3c2C(=O)N(C2CCC(=O)NC2=O)C3=O)cc1 (stereo not drawn)
6. Cc1ncsc1-c1ccc(CNC(=O)[C@@H]2C[C@@H](O)CN2C(=O)[C@@H](NC(=O)CCCCCCCNC(=O)c2ccc(CCOc3cc(-c4ccccc4O)nnc3N)cc2)C(C)(C)C)cc1

1. < 50%
2. > 50%
3. < 50%
4. < 50%
5. > 50%
6. < 50%

Each compound below has a reported value. Please supply its Dmax.
1. Cc1ncsc1-c1ccc([C@H](C)NC(=O)[C@@H]2C[C@@H](O)CN2C(=O)[C@@H](c2cc(OCCNCCCCCCCCC(=O)NCc3ccc(CCOc4cc(-c5ccccc5O)nnc4N)cc3)no2)C(C)C)cc1
2. Nc1nnc(-c2ccccc2O)cc1OCCc1ccc(CNC(=O)C2CC2CNC(=O)COc2cccc3c2C(=O)N(C2CCC(=O)NC2=O)C3=O)cc1 (stereo not drawn)
3. Cc1ncsc1-c1ccc([C@H](C)NC(=O)[C@@H]2C[C@@H](O)CN2C(=O)[C@@H](NC(=O)CCN2CCN(CCCCC(=O)NCc3ccc(CCOc4cc(-c5ccccc5O)nnc4N)cc3)CC2)C(C)(C)C)cc1
4. Cc1ncsc1-c1ccc(CNC(=O)[C@@H]2C[C@@H](O)CN2C(=O)[C@@H](NC(=O)CCCCCCCCCNC(=O)CN2CCN(c3cc(-c4ccccc4O)nnc3N)CC2)C(C)(C)C)cc1

< 50%
< 50%
< 50%
< 50%

May I ask what Dmax has been recorded for Cc1ncsc1-c1ccc([C@H](C)NC(=O)[C@@H]2C[C@@H](O)CN2C(=O)[C@@H](NC(=O)CCCCCCCCCC(=O)NCc2ccc(CCOc3cc(-c4ccccc4O)nnc3N)cc2)C(C)(C)C)cc1 ?
< 50%

====

Molecular target: HiBit-BRG1 (Homo sapiens, UniProt P51532)
Construct: expressed in transfected cells
Assay: HiBit-BRG1 cell-based degradation assay (Nano-Glo HiBiT Lytic Detection)
Details: HeLa cells expressing HiBit-BRG1 and LgBit, 24 h; read-out: BRG1 HiBit Degradation Maximum (%)
measured_quantity: Dmax

Examples with their reported Dmax follow.
[
  {
    "smiles_repr": "Nc1nnc(-c2ccccc2O)cc1OCCc1ccc(C(=O)NCCCCCCCCC(=O)NCc2ccc(S(=O)(=O)Nc3cccc4c(Cl)c[nH]c34)cc2)cc1",
    "assay_system": "HiBit-BRG1 (Homo sapiens, UniProt P51532)",
    "measured_quantity": "Dmax",
    "value_measured": "< 50%"
  },
  {
    "smiles_repr": "Cc1ncsc1-c1ccc([C@H](C)NC(=O)[C@@H]2C[C@@H](O)CN2C(=O)[C@@H](c2cc(OCCN3CC(C(=O)NCc4ccc(CCOc5cc(-c6ccccc6O)nnc5N)cc4)C3)no2)C(C)C)cc1",
    "assay_system": "HiBit-BRG1 (Homo sapiens, UniProt P51532)",
    "measured_quantity": "Dmax",
    "value_measured": "> 75%"
  },
  {
    "smiles_repr": "Cc1ncsc1-c1ccc([C@H](C)NC(=O)[C@@H]2C[C@@H](O)CN2C(=O)[C@@H](c2cc(OCCN3C[C@@H]4[C@H](C3)[C@H]4C(=O)NCc3ccc(CCOc4cc(-c5ccccc5O)nnc4N)cc3)no2)C(C)C)cc1",
    "assay_system": "HiBit-BRG1 (Homo sapiens, UniProt P51532)",
    "measured_quantity": "Dmax",
    "value_measured": "> 75%"
  }
]

Each of the following entries comes with a recorded value; kindly state Dmax for each.
1. Cc1ncsc1-c1ccc([C@H](C)NC(=O)[C@@H]2C[C@@H](O)CN2C(=O)[C@@H](NC(=O)CCCCCCCCCCCCCC(=O)NCc2ccc(CCOc3cc(-c4ccccc4O)nnc3N)cc2)C(C)C)cc1
2. Nc1nnc(-c2ccccc2O)cc1OCCc1ccc(C(=O)NCC(=O)NCc2ccc(S(=O)(=O)Nc3cccc4c(Cl)c[nH]c34)cc2)cc1

1. < 50%
2. < 50%

====

Biological target: HiBit-BRG1 (Homo sapiens)
Construct: expressed in transfected cells
Test: HiBit-BRG1 cell-based degradation assay (Nano-Glo HiBiT Lytic Detection)
Details: HeLa cells expressing HiBit-BRG1 and LgBit, 24 h; read-out: BRG1 HiBit Degradation IC50
measured_quantity: DC50

[
  {
    "compound": "Nc1nnc(-c2ccccc2O)cc1OCCc1ccc(CNC(=O)CCCCNc2cccc3nnn(C4CCC(=O)NC4=O)c(=O)c23)cc1 (centres unmarked)",
    "measured_quantity": "DC50",
    "value_measured": "> 1 µM"
  },
  {
    "compound": "Cc1ncsc1-c1ccc(CNC(=O)[C@@H]2C[C@@H](O)CN2C(=O)[C@@H](NC(=O)CCCCCCCCCNC(=O)c2ccc(CCOc3cc(-c4ccccc4O)nnc3N)cc2)C(C)(C)C)cc1",
    "measured_quantity": "DC50",
    "value_measured": "> 1 µM"
  },
  {
    "compound": "Cc1ncsc1-c1ccc([C@H](C)NC(=O)[C@@H]2C[C@@H](O)CN2C(=O)[C@@H](c2cc(OCCN3C[C@@H]4[C@H](C3)[C@H]4C(=O)NCc3ccc(CCOc4cc(-c5ccccc5O)nnc4N)cc3)no2)C(C)C)cc1",
    "measured_quantity": "DC50",
    "value_measured": "> 0.1 µM"
  },
  {
    "compound": "Cc1ncsc1-c1ccc(CNC(=O)[C@H]2C[C@H](O)CN2C(=O)[C@H](NC(=O)CCCCCNC(=O)c2ccc(CCOc3cc(-c4ccccc4O)nnc3N)cc2)C(C)(C)C)cc1 (stereo in doubt)",
    "measured_quantity": "DC50",
    "value_measured": "> 1 µM"
  },
  {
    "compound": "Cc1ncsc1-c1ccc(CNC(=O)[C@@H]2C[C@@H](O)CN2C(=O)[C@@H](NC(=O)CCNCc2ccc(CCOc3cc(-c4ccccc4O)nnc3N)cc2)C(C)(C)C)cc1",
    "measured_quantity": "DC50",
    "value_measured": "> 1 µM"
  },
  {
    "compound": "Cc1ncsc1-c1ccc(CNC(=O)[C@@H]2C[C@@H](O)CN2C(=O)[C@@H](NC(=O)CCN2CC(CC(=O)NCc3ccc(CCOc4cc(-c5ccccc5O)nnc4N)cc3)C2)C(C)(C)C)cc1",
    "measured_quantity": "DC50",
    "value_measured": "> 1 µM"
  }
]

Go through the items and report each one's DC50.
1. Nc1nnc(-c2ccccc2O)cc1N1CCN(CC(=O)NCCCCCNc2ccc3c(c2)C(=O)N(C2CCC(=O)NC2=O)C3=O)CC1 (centres unmarked)
2. Nc1nnc(-c2ccccc2O)cc1OCCc1ccc(CNCCCCCNc2cccc3nnn(C4CCC(=O)NC4=O)c(=O)c23)cc1 (centres unmarked)
3. Cc1ncsc1-c1ccc([C@H](C)NC(=O)[C@@H]2C[C@@H](O)CN2C(=O)[C@@H](NC(=O)CCN2CCN(CCCCC(=O)NCc3ccc(CCOc4cc(-c5ccccc5O)nnc4N)cc3)CC2)C(C)(C)C)cc1
4. Cc1ncsc1-c1ccc([C@H](C)NC(=O)[C@@H]2C[C@@H](O)CN2C(=O)[C@@H](c2cc(OCCN3CCC(C(=O)NCc4ccc(CCOc5cc(-c6ccccc6O)nnc5N)cc4)CC3)no2)C(C)C)cc1

> 1 µM
> 1 µM
> 1 µM
> 0.1 µM

Query (compound): Nc1nnc(-c2ccccc2O)cc1OCCc1ccc(CNC(=O)CCCCCCCCCNc2ccc3c(c2)C(=O)N(C2CCC(=O)NC2=O)C3=O)cc1 (centres unmarked) ; field requested: DC50
> 1 µM
